test system: S. pyogenes ATCC 19615; assay: CLSI broth dilution MIC determination; assay type: cell-based; details: Streptococcus pyogenes, ATCC19615, S. pyogenes ATCC 19615 (MP-19); read-out: MIC
measureName: MIC

# return recorded MIC for entry CC[C@H]1OC(=O)[C@@](C)(F)C(=O)[C@H](C)[C@@H](O[C@@H]2OC(C)CC(N(C)C)C2O)[C@](C)(OC)C[C@@H](C)C(=O)[C@H](C)[C@H]2N(CC#CCn3cc(-c4cc(F)ccn4)nn3)C(=O)O[C@]12C (stereo partly shown) [FSM-100563]
< 0.03 µg/mL

# return recorded MIC for entry CC[C@H]1OC(=O)[C@H](C)C(=O)[C@H](C)[C@@H](O[C@@H]2OC(C)CC(N(C)C)C2O)[C@](C)(OC)C[C@@H](C)C(=O)[C@H](C)[C@H]2N(CC#CCn3cc(-c4cc(F)ccn4)nn3)C(=O)O[C@]12C (stereo partly shown) [FSM-100566]
< 0.03 µg/mL

# return recorded MIC for entry CC[C@H]1OC(=O)[C@@](C)(F)C(=O)[C@H](C)[C@@H](O[C@@H]2OC(C)CC(N(C)C)C2O)[C@](C)(OC)C[C@@H](C)C(=O)[C@H](C)[C@H]2N(CC#CCn3cc(-c4cccc(N)c4)nn3)C(=O)O[C@]12C (stereo partly shown) [FSM-100426]
< 0.0312 µg/mL

# return recorded MIC for entry CC[C@H]1OC(=O)[C@H](C)C(=O)[C@H](C)[C@@H](O[C@@H]2OC(C)CC(N(C)C)C2O)[C@](C)(OC)C[C@@H](C)C(=O)C[C@H]2N(CCCCn3cc(-c4cccc(N)c4)nn3)C(=O)O[C@]12C (stereo partly shown) [FSM-21535]
≤ 0.0312 µg/mL

###

Test system: S. aureus MRSA: USA100
Assay: CLSI broth dilution MIC determination
Format: cell-based
Settings: Staphylococcus aureus; S. aureus MRSA: USA100 (MP-618 UNT-096); read-out: MIC
Excerpt: MIC data was collected for the novel macrolides that this platform has produced against over 21 unique strains of B. subtilis, E. coli, S. aureus, S. pneumoniae, and H. influenzae, including several multidrug-resistant strains, with a special focus on macrolide resistant mechanisms (vide supra). Azithromycin (Azithro) and Solithromycin (Solithro) were included as a control macrolides in many cases. CLSI standard procedures for broth dilution MIC determination were used. […]
Task for the reader: assign each of the following compounds its reported MIC.

Please tell me the measured MIC for CC[C@H]1OC(=O)[C@@](C)(F)C(=O)[C@H](C)[C@@H](O[C@@H]2OC(C)CC(N(C)C)C2O)[C@](C)(OC)C[C@@H](C)C(=O)[C@H](C)[C@H]2N(CC#CCn3cc(-c4cccc(N)c4)nn3)C(=O)O[C@]12C (some centres unmarked) ; system: S. aureus MRSA: USA100.
> 32 µg/mL

Please tell me the measured MIC for CC[C@H]1OC(=O)[C@H](C)C(=O)[C@H](C)[C@@H](O[C@@H]2OC(C)CC(N(C)C)C2O)[C@](C)(OC)C[C@@H](C)C(=O)[C@H](C)[C@H]2N(CC#CCn3cc(-c4cccc(N)n4)nn3)C(=O)O[C@]12C (some centres unmarked) ; system: S. aureus MRSA: USA100.
> 64 µg/mL

Please tell me the measured MIC for CC[C@H]1OC(=O)[C@@](C)(F)C(=O)[C@H](C)[C@@H](O[C@@H]2OC(C)CC(N(C)C)C2O)[C@](C)(OC)C[C@@H](C)C(=O)[C@H](C)[C@H]2N(CC#CCn3cc(-c4cccc(N)n4)nn3)C(=O)O[C@]12C (some centres unmarked) ; system: S. aureus MRSA: USA100.
16 µg/mL

Please tell me the measured MIC for CC[C@H]1OC(=O)[C@H](C)C(=O)[C@H](C)[C@@H](O[C@@H]2OC(C)CC(N(C)C)C2O)[C@](C)(OC)C[C@@H](C)C(=O)[C@H](C)[C@H]2N(CC#CCn3cc(-c4cc(F)ccn4)nn3)C(=O)O[C@]12C (some centres unmarked) ; system: S. aureus MRSA: USA100.
> 64 µg/mL

Please tell me the measured MIC for CC[C@H]1OC(=O)[C@H](C)[C@@H](O[C@H]2C[C@@](C)(OC)[C@@H](O)[C@H](C)O2)[C@H](C)[C@@H](O[C@@H]2O[C@H](C)C[C@H](N(C)C)[C@H]2O)[C@](C)(O)C[C@@H](C)CN(C)[C@H](C)[C@@H](O)[C@]1(C)O [Azithro, azithromycin, reference compound] ; system: S. aureus MRSA: USA100.
> 32 µg/mL

Please tell me the measured MIC for CC[C@H]1OC(=O)[C@H](C)C(=O)[C@H](C)[C@@H](O[C@@H]2OC(C)CC(N(C)C)C2O)[C@](C)(OC)C[C@@H](C)C(=O)C[C@H]2N(CCCCn3cc(-c4cccc(N)c4)nn3)C(=O)O[C@]12C (some centres unmarked) ; system: S. aureus MRSA: USA100.
> 32 µg/mL

Please tell me the measured MIC for CC[C@H]1OC(=O)[C@@](C)(F)C(=O)[C@H](C)[C@@H](O[C@@H]2OC(C)CC(N(C)C)C2O)[C@](C)(OC)C[C@@H](C)C(=O)C[C@H]2N(CCCCn3cc(-c4cccc(N)c4)nn3)C(=O)O[C@]12C (some centres unmarked) ; system: S. aureus MRSA: USA100.
> 32 µg/mL

Please tell me the measured MIC for C=C1C(=O)[C@H](C)C[C@@](C)(OC)[C@H](O[C@@H]2OC(C)CC(N(C)C)C2O)[C@@H](C)C(=O)[C@@H](C)C(=O)O[C@H](CC)[C@@]2(C)OC(=O)N(CCCCn3cc(-c4cccc(N)c4)nn3)[C@H]12 (some centres unmarked) ; system: S. aureus MRSA: USA100.
> 32 µg/mL
